test: folding stability dG unfold from trypsin proteolysis; higher = more stable
Observed Property: folding stability dG unfold (kcal/mol)
Give just the numeric value; kcal/mol need not be written.

Some sequences with known folding stability dG unfold results, for comparison:
SAGGSAGGMARVLRVEPAEGDDTFYVEVEFYDPATGEVTLGRFRIPADRPDLATNIPADSWVVLSAGGSAGG [r6_978_TrMRF]
0.66
SAGGSAGGSAGGKIIVVKDKETGKYRVIIVDKKTKKTIVVEVDPNTTLEEALKKAKELLKSAGGSAGGSAGG [r7_138_TrROS_Hall]
3.05
SEPLTPEEVEKFAEWIAKELNEEHGKEVKVEVEYHPDDGYFRAEIEIPNGRRIEITFNPEFGQLDIEVEDSA [r9_9_TrROS]
1.31

Quote folding stability dG unfold reported for SAGGSAGGSSMPLLTKETSESYDPVNNTKTTTERIEEPGSGKFVFTKTTTTYPDGTVTTTLVESAGGSAGGS [r12_115_JUSTAS] please. -0.336

Note folding stability dG unfold for the sequence shown: SAGGSAGGSAGMKIKTKNGEVIEIKVDKKTGKIEITFPDGKKITIDAPNLTIEDIKKLLESAGGSAGGSAGG [r11_729_TrMRF] 2.47

Fill in folding stability dG unfold for record SAGGRIHIPIPLNQAREILKKLAPDGRDVTAEPQGPSKDNVYYTIEFEPPKNGNEVDIEIWIPPPGDSAGGS [r16_486_TrROS] -0.000485

Determine from records and report folding stability dG unfold for SAGGSANNPKPRIIEIPIQFDWPPGDPQQMRNLAETIADEFSDPGYRVEIDEFTPDYFMFNIKIEWSAGGSA [r15_563_TrROS] 2.13

Return folding stability dG unfold for the following sequence: SAGGSMVIEAEIEFPDMTPEEVEERAEEIAEAAAEFARKKGFPIKKVEADVEVFPGEGVVKVTVTLEGSAGG [r13_212_TrMRF] 0.612

Kindly indicate its recorded folding stability dG unfold. Item: SAGGSAGGSPVVVIEVPAEDLSPEDIKALLAAAPDENAVIVITNPDGEKRTLVFTPDGRIEPLSAGGSAGGS [r12_1054_TrROS_Hall] 0.681

Provide one value: measured folding stability dG unfold of SMKILNDPNIKKVIPVFLMLMSPEEFKKLAEKLANGIKKELEEKGFPIPKDIEIKIIPFKSPEELKKALKSA [r9_204_TrMRF] 1.29

Report measured folding stability dG unfold; entry is SAGGSAGGSAKRKVIEVDSLEEIKKAIEEAKEGEVVEIVVRDPETNETYTLKVVDGKIVLIPSAGGSAGGSA [r18_407_TrROS_Hall] 1.32

====

test: folding stability dG unfold (combined trypsin and chymotrypsin); higher = more stable
Kindly return true (1) if reported folding stability dG unfold is no lower than 3 kcal/mol; return false (0) if it is lower.

SAGGSAGGSAGMTLEELLRKAKPGQTLTLRVRVVERNEDGSLSEREFTFTFRLELKPEDLSAGGSAGGSAGG [r11_347_TrROS_Hall]
true (1)
SAGGSAGGSAGMRLLTVEYFDENGNPLSVEEIELYIERPPPPFLELEIDPRTGEPRFTGLSAGGSAGGSAGG [r17_348_JUSTAS]
false (0)
SAGGPKIEVDVKHQRTPDGMYRMRVTAVVPGNGRKIKITMPMPPDDPSPMPKMAKSIAKELANDPGLKSAGG [r13_968_TrROS]
false (0)
SKETETVEMEITITVNGKKVKIKATFTRNKDGSITMTITYEDGKKIEITFTNGKIVIVDKKTKKIIAEIPSA [r9_970_TrROS_Hall]
true (1)

Exam item: decide whether the reported folding stability dG unfold for SAGGSAGGSKEKYIKIVVEVNGEKKVIVVKAKTIEELEELAKKLNLEVEIEKREDGYLVIRLKSAGGSAGGS [r12_810_TrROS_Hall] is at least 3 kcal/mol. true (1)

Given SMKLKLYDPATGKWYELTYDPAKGTVTITYPDGKVITRPVKSIEVNPETGTITITFPDSTETFTVPESLISA [r9_325_JUSTAS] , state whether its folding stability dG unfold is at least 3 kcal/mol. true (1)

Decide: is the reported value of folding stability dG unfold for SAGGSAGGSVEELLAAATSEDPAKGLARAELPSGATATVDPAAGTVTITFTSPGTPSTTTVPAPSAGGSAGG [r6_793_JUSTAS] equal to or greater than 3 kcal/mol? false (0)

Is reported folding stability dG unfold greater than or equal to 3 kcal/mol here: SMILDVPGEQLDEALAEIRAAVAAGAPPVTIRMKLSPEDLKKAKAAFEALGMTVTPLPEPGVWEFTVELRSA [r9_600_JUSTAS] true (1)

Decide: folding stability dG unfold of SAGGGSYTIVVELGDKKVVFEIDKEEAVEEAVAKLPELGLEVEVLKKEKVLNEDGKPSVLVEVKVKPSAGGS [r8_336_TrMRF] >= 3 kcal/mol? false (0)

Confirm if folding stability dG unfold reported for the sequence SATKEIEIEVNGRKLRIRIERKEDGSIKITIELPGMSAEEVKEALRKLLPPDAKITVDEITVTEYREEPSAG [r14_370_TrROS_Hall] is 3 kcal/mol or above. false (0)

# check: folding stability dG unfold of SMVVPVLIEKPYTSPEELEEFKKEAEELVKKLAEETGYPIKVLETKYTTDPNTNVVSLTLVVEIVSPELNSA [r9_105_JUSTAS] is greater than or equal to 3 kcal/mol false (0)

====

assay: folding stability dG unfold from chymotrypsin proteolysis; higher = more stable
Observed Property: folding stability dG unfold (kJ/mol)
Give the quantity in kJ/mol, number only.

Worked set:
SAGGSAGGSAGGWYRIEIEFGNKPREYVVPGAPPDEAADMLQDPGIKNVKVEPLPPEQLKSAGGSAGGSAGG [r7_502_TrROS]
2.25
SAGRIHVMVFPLDPKDGKWEWVWTFTIDFKPGEKLTLDEIADDIPPKGYMVMIWFTPDTITITIWRRKDSAG [r5_269_TrROS]
22.3
SAGGKEYYLVKIEIEVTPENGKKETIEIELIVDGNPEEALKKAKEIAEYLEKKGFKVEIKKIEVYPASAGGS [r16_525_TrMRF]
19
SAGGVEEIVEKLPEEAEEVEITSEPHPLPGSTLTKYTIKAKNSATGKTKTYEVTVLYDPEGNVLEVLLSAGG [r13_358_JUSTAS]
11.5
SAGGRVDVRVERVGEGAVITLLADVEDPEPLVELLEASGLPVELARIEPVRDPVTGRLLVRAVFRVPSAGGS [r16_699_TrMRF]
4.75
SAGGSAKPKVEVEIVDVEFEEVEVNGKKYLVMKMKVKLKETGEYIEVTMVFDLKTNKMYIEVKKLPSAGGSA [r15_528_TrROS_Hall]
21.3
SAGGSAGGSAKKKKKKFKIVKIEIEVEVVKDKKTNKYYVKVKIKIYLKGNKKEFEMEFVFPSAGGSAGGSAG [r3_424_TrROS_Hall]
17
SAGGSAGGSQWIEIELPLPNGRNIQIEMWPNNGMVDVEWPDGKEVEFPVETADDALDRVLDALSAGGSAGGS [r12_866_TrROS]
2.31
SAGGSAGGSAGGSMVPVPVNILKLAPGGIPLGTYPVEPLRKEGISPEEFAKKNGYIISGSAGGSAGGSAGGS [r10_153_JUSTAS]
-0.109
SAGGSAGGSAGKKPPKVKVLELTFTLEDGYKVTVRLVENEDGELFLEIRIEPLPELPEEKSAGGSAGGSAGG [r11_998_TrROS_Hall]
14

Quick one: give measured folding stability dG unfold for SAGMEITVPGPFLSQEVFDLPDRPYLVLPTPEGIAVIDLVTGEAVFYPFGTTEPIVVPVPPGEELDLLSAGG [r19_138_TrMRF] 8.23

For the sequence SAGGSAGGSAGVPDNAKIRLAFEFDGYIVLIEATPGTGFIKNIDKVEVFPVIPNTGEVTGSAGGSAGGSAGG [r11_66_TrMRF] , give its measured folding stability dG unfold value. 7.74

Give folding stability dG unfold for the following sequence: SAGDADEDPVLVVFVRTEERPLVVVRRVEPDEDPEEVAKELAAEIREKLGPDVEVFVEMVRREDAEKLFSAG [r5_583_TrMRF] 10.2

State its folding stability dG unfold for this sequence: SAGGSAGGMIPVKTTETTTLPDGSTVVTESLTIIDPTSNTSTTTTLKTTIINTSTGTTIPPSSLSAGGSAGG [r6_866_JUSTAS] 1.33

====

assay: folding stability dG unfold from trypsin proteolysis; higher = more stable
As shown below, each of these sequences has a reported folding stability dG unfold value.
Please respond with the number in kcal/mol and leave the unit unwritten.

SAGGSAGGSGMAVSVSVTPVRLPDGSVRLVISFSSGSTVVLDLPESEWTPEQVEALVAELVSASAGGSAGGS [r12_218_JUSTAS]
3.82
MSEEELRELEERLAAPGPVEVRVEVEVREEEGDEPVFVFRVRYYRPEPGEELGEEEIVVPEEELEELLRELS [r1_415_TrMRF]
1.34
SAGGSAGGSILVIKIKFPGNGRPIHYPIKDPEDFDRVLKKAKERFPGYDKDNIKEAEIYPLPPSAGGSAGGS [r12_852_TrROS]
-0.436
SAGGIKIQDPDDGEWIEFPLPIRNPGDGKPYPFKVEIPVRRDPENGRPYFYIEIEFPGNGRKMTFPLRSAGG [r13_262_TrROS]
0.518
SAGGMMKIKITIINENGETLTIEIEVPEEDLEEAIKALEDELKKKGYEIESIERVNGKITITVRIKPSAGGS [r16_662_TrROS_Hall]
4.03
SAGKPLTPDEAKELAEELVDAFAEEFARRHGMPPDDMKVIEVEETPDGYIQVTFRMPNMPMKFEIPVKDSAG [r5_565_TrROS]
0.435

// fetch folding stability dG unfold given entry SAGGSAGGSKKKVKVEIVEYDPETKKVTVRVTVDGKEYEFTFSTPEELEAAAKAGKIDEITLTSAGGSAGGS [r12_421_TrROS_Hall] 2.26
